test system: LOX IMVI; test: NCI tumour cell line growth inhibition, 48 h
Calls of active or inactive are those of the source. Rule as the data show it: active = GI50 up to about 1.1 µM and inactive = higher.
GI50 values for the compounds below.

{"COMPOUND": "CCSC1=CC(Cc2ccc(OC)cc2)N(C(=O)OC)C1 (centres undefined)", "GI50": "36.3 µM (inactive)"}
{"COMPOUND": "CSC(=S)NN=C1CCCCC1", "GI50": "20.5 µM (inactive)"}
{"COMPOUND": "Cc1ccc(N(C=O)c2c([N+](=O)[O-])cc([N+](=O)[O-])c3c2=[N+]([O-])CN=3)cc1", "GI50": "21.9 µM (inactive)"}
{"COMPOUND": "O=C(NNC(=S)NCc1ccccc1)C12CC3CC(CC(C3)C1)C2", "GI50": "35.4 µM (inactive)"}
{"COMPOUND": "Cc1cc(-c2ccccc2)cc2[n+]1CC=C2.[O-][Cl+3]([O-])([O-])[O-]", "GI50": "> 100 µM (inactive)"}
{"COMPOUND": "Cn1c2ccccc2n2c3ncccc3c(=O)c(C#N)c12", "GI50": "5.96 µM (inactive)"}
{"COMPOUND": "CCOC(=O)c1csc(NC(=O)CCCC#N)n1", "GI50": "> 100 µM (inactive)"}
{"COMPOUND": "COC(=O)c1cccc(C(=O)OC)c1", "GI50": "> 100 µM (inactive)"}
{"COMPOUND": "COC(=O)C[C@H]1CCC2(OCCO2)[C@]1(C)C(=O)OC", "GI50": "> 100 µM (inactive)"}
